Tested on: Plutella xylostella
assay-summary: Insecticidal activity against third-instar larvae of Plutella xylostella (diamondback moth) in cabbage leaf disk after 4 to 7 days by leaf dipping method
Assay type: functional, organism-based
measurement-kind: EC50 (mgAi/L)
Express it in mgAi/L; write the number only.

Examples with answers:
molecule	measure-unit	EC50
Cc1cc(Cl)ccc1NC(=O)c1cccc(F)c1C(=O)NC(C)C	mgAi/L	1
Cc1cc(Cl)ccc1NC(=O)c1ccc(Cl)cc1C(=O)NC(C)C	mgAi/L	5
COc1ccc(NC(=O)c2cccc(I)c2C(=O)NC(C)C)c(C)c1	mgAi/L	10

Tested on Plutella xylostella: CCCSP(=S)(OCC)Oc1ccc(Cl)cc1Cl (stereo not given) [PROTHIOFOS] . Observed EC50: 3.78

Tested on Plutella xylostella: "Cc1cc(C(F)(C(F)(F)F)C(F)(F)F)ccc1NC(=O)c1cccc(I)c1C(=O)NC(C)C" . Observed EC50: 0.1

Tested on Plutella xylostella: CNC(=O)ON=C(C)SC [METHOMYL] . Observed EC50: 14.5

Tested on Plutella xylostella: "Cc1cc(C(F)(C(F)(F)F)C(F)(F)F)ccc1NC(=O)c1cccc(I)c1C(=O)NC(C)(C)C" . Observed EC50: 0.3

Tested on Plutella xylostella: "Cc1cc(Cl)ccc1NC(=O)c1cccc(I)c1C(=O)NC(C)C" . Observed EC50: 0.3

Tested on Plutella xylostella: "Cc1cc(Cl)ccc1NC(=O)c1ccccc1C(=O)NC(C)C" . Observed EC50: 3

Tested on Plutella xylostella: "Cc1cc(Cl)ccc1NC(=O)c1cccc(Br)c1C(=O)NC(C)C" . Observed EC50: 1

Tested on Plutella xylostella: Cc1cc(C(F)(C(F)(F)F)C(F)(F)F)ccc1NC(=O)c1cccc(I)c1C(=O)NC(C)(C)CS(C)(=O)=O [FLUBENDIAMIDE] . Observed EC50: 0.001

Tested on Plutella xylostella: CC1(C)C(/C=C(\Cl)C(F)(F)F)C1C(=O)OC(C#N)c1cccc(Oc2ccccc2)c1 (stereo not given) [CYHALOTHRIN] . Observed EC50: 0.24

Tested on Plutella xylostella: "Cc1cc(Cl)ccc1NC(=O)c1cc(Cl)ccc1C(=O)NC(C)C" . Observed EC50: 50

Tested on Plutella xylostella: "Cc1cc(OC(F)(F)F)ccc1NC(=O)c1cccc(I)c1C(=O)NC(C)C" . Observed EC50: 0.3

Tested on Plutella xylostella: "Cc1cc(Cl)ccc1NC(=O)c1c(Cl)cccc1C(=O)NC(C)C" . Observed EC50: 10

Tested on Plutella xylostella: "Cc1cc(Cl)ccc1NC(=O)c1cccc(Cl)c1C(=O)NC(C)C" . Observed EC50: 1

Tested on Plutella xylostella: "Cc1cc(Cl)ccc1NC(=O)c1cccc([N+](=O)[O-])c1C(=O)NC(C)C" . Observed EC50: 10
